target: Human Factor B (human) (UniProt P00751); assay: cell-based or functional assay
Sequence (P00751 26-764 limits assumed): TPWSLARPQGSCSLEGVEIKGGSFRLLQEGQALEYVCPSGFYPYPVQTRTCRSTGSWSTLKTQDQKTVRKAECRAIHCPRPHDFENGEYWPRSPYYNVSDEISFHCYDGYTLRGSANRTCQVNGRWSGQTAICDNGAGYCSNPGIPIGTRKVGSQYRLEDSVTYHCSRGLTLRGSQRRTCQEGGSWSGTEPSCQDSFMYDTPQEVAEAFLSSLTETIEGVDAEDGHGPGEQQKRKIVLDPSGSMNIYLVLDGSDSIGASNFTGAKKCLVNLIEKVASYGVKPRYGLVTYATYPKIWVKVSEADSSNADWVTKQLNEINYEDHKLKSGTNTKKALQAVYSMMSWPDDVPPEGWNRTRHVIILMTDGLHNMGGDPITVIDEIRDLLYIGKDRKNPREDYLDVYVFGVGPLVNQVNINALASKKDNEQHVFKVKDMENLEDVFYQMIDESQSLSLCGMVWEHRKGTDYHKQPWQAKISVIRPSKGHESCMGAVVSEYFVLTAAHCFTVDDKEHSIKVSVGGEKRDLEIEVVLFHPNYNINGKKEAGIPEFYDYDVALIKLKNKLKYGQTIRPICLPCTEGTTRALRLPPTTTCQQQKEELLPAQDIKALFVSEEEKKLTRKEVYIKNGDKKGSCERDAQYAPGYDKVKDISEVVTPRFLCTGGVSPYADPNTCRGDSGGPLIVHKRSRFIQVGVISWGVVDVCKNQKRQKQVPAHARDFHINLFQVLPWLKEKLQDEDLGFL
endpoint: fB Cleavage EC50 (µM)
Value expressed in µM; do not type the unit.

Examples from the recorded data:
- binder: "chymase C22S/P38Q/K40M/F41R/V138I/F173Y/D175R/A190S/V213A/S218V/A226R (enzyme) IIGGTESKPHSRPYMAYLEIVTSNGQSMRCGGFLIRRNFVLTAAHCAGRSITVTLGAHNITEEEDTWQKLEVIKQFRHPKYNTSTLHHDIMLLKLKEKASLTLAVGTLPFPSQFNFVPPGRMCRIAGWGRTGVLKPGSDTLQEVKLRLMDPQACSHYRRFDHNLQLCVGNPRKTKSSFKGDSGGPLLCAGVAQGIASYGRVDAKPPRVFTRISHYRPWINQILQAN"
  units: "µM"
  fB Cleavage EC50: 0.0281
- binder: "chymase C22S/P38Q/V213Q/A226R/F228A (enzyme) IIGGTESKPHSRPYMAYLEIVTSNGQSKFCGGFLIRRNFVLTAAHCAGRSITVTLGAHNITEEEDTWQKLEVIKQFRHPKYNTSTLHHDIMLLKLKEKASLTLAVGTLPFPSQFNFVPPGRMCRVAGWGRTGVLKPGSDTLQEVKLRLMDPQACSHFRDFDHNLQLCVGNPRKTKSAFKGDSGGPLLCAGVAQGIQSYGRSDAKPPRVATRISHYRPWINQILQAN"
  units: "µM"
  fB Cleavage EC50: 6.21
- binder: "chymase C22S/K40M/F41V/G151R/K192R/A226R (enzyme) IIGGTESKPHSRPYMAYLEIVTSNGPSMVCGGFLIRRNFVLTAAHCAGRSITVTLGAHNITEEEDTWQKLEVIKQFRHPKYNTSTLHHDIMLLKLKEKASLTLAVGTLPFPSQFNFVPPGRMCRVAGWGRTGVLKPRSDTLQEVKLRLMDPQACSHFRDFDHNLQLCVGNPRKTKSAFRGDSGGPLLCAGVAQGIVSYGRSDAKPPRVFTRISHYRPWINQILQAN"
  units: "µM"
  fB Cleavage EC50: 7.77
- binder: "chymase C22S/L99R/F173Y/K192R/A226R (enzyme) IIGGTESKPHSRPYMAYLEIVTSNGPSKFCGGFLIRRNFVLTAAHCAGRSITVTLGAHNITEEEDTWQKLEVIKQFRHPKYNTSTRHHDIMLLKLKEKASLTLAVGTLPFPSQFNFVPPGRMCRVAGWGRTGVLKPGSDTLQEVKLRLMDPQACSHYRDFDHNLQLCVGNPRKTKSAFRGDSGGPLLCAGVAQGIVSYGRSDAKPPRVFTRISHYRPWINQILQAN"
  units: "µM"
  fB Cleavage EC50: 3.28

Consider the record given below.
Input: What measured fB Cleavage EC50 goes with chymase C22S/P38Q/K40V/F41R/V138I/F173L/D175N/A190S/V213A/S218V/A226R (enzyme) IIGGTESKPHSRPYMAYLEIVTSNGQSVRCGGFLIRRNFVLTAAHCAGRSITVTLGAHNITEEEDTWQKLEVIKQFRHPKYNTSTLHHDIMLLKLKEKASLTLAVGTLPFPSQFNFVPPGRMCRIAGWGRTGVLKPGSDTLQEVKLRLMDPQACSHLRNFDHNLQLCVGNPRKTKSSFKGDSGGPLLCAGVAQGIASYGRVDAKPPRVFTRISHYRPWINQILQAN ?
Output: 0.279
